Record form. Attribute: combination Emax. Fill in for each entry.
# System: SK-MM-2 (Plasma Cell Myeloma)
# procedure-details: combination Emax (second highest fraction inhibited in the dose matrix, 72 h); higher = more inhibition; extreme values may be limits of the assay
One number for each entry.

See these solved cases before continuing.
{"molecule": "Cc1cc2ncnn2cc1Nc1ncc2c(n1)n(C1CCOCC1)c(=O)n2C [AZD7648] + CCN(CCO)CCCOc1ccc2c(Nc3cc(CC(=O)Nc4cccc(F)c4)[nH]n3)ncnc2c1 [AZD2811] (first compound max 10 µM, 7x7, partner max 1 µM)", "meas-value": 0.313}
{"molecule": "Cn1cnc2c(F)c(Nc3ccc(Br)cc3Cl)c(C(=O)NOCCO)cc21 [Selumetinib] + CC(C)n1c(=O)n(C)c2cnc3cc(F)c(-c4ccc(OCCCN5CCCCC5)nc4)cc3c21 [AZD1390] (first compound max 10 µM, 7x7, partner max 0.3 µM)", "meas-value": 0.174}
{"molecule": "CC1(C)CCC(CN2CCN(c3ccc(C(=O)NS(=O)(=O)c4ccc(NCC5CCOCC5)c([N+](=O)[O-])c4)c(Oc4cnc5[nH]ccc5c4)c3)CC2)=C(c2ccc(Cl)cc2)C1 [Venetoclax] + Cc1cc2ncnn2cc1Nc1ncc2c(n1)n(C1CCOCC1)c(=O)n2C [AZD7648] (first compound max 1 µM, 7x7, partner max 10 µM)", "meas-value": 1}
{"molecule": "CC(=O)c1c(C)c2cnc(Nc3ccc(N4CCNCC4)cn3)nc2n(C2CCCC2)c1=O [Palbociclib] + Cc1c2c(nn1C)CSCc1cc(n(C)n1)CSc1cc(c3ccccc3c1)OCCCc1c(C(=O)O)n(C)c3c-2c(Cl)ccc13 [AZD5991] (first compound max 10 µM, 7x7, partner max 1 µM)", "meas-value": 0.259}
{"molecule": "COc1cccc(OCCCN)c1-c1cc(Nc2cnc(C#N)cn2)n[nH]1 [Prexasertib] + CCc1c2c(nc3ccc(O)cc13)-c1cc3c(c(=O)n1C2)COC(=O)[C@]3(O)CC [SN-38] (first compound max 1 µM, 7x7, partner max 0.3 µM)", "meas-value": 0.875}
{"molecule": "C=CCn1c(=O)c2cnc(Nc3ccc(N4CCN(C)CC4)cc3)nc2n1-c1cccc(C(C)(C)O)n1 [AZD1775] + C[C@@H]1COCCN1C2=NC(=NC(=C2)C3(CC3)[S@](=N)(=O)C)C4=C5C=CNC5=NC=C4 [AZD6738] (first compound max 1 µM, partner max 10 µM)", "meas-value": 0.705}

# next molecule below
Value lookup for combination Emax; key = Cc1c2c(nn1C)CSCc1cc(n(C)n1)CSc1cc(c3ccccc3c1)OCCCc1c(C(=O)O)n(C)c3c-2c(Cl)ccc13 [AZD5991] + C=CCn1c(=O)c2cnc(Nc3ccc(N4CCN(C)CC4)cc3)nc2n1-c1cccc(C(C)(C)O)n1 [AZD1775] (first compound max 1 µM, partner max 1 µM) 0.707

Data origin: the supplement of paper PMC11061612
